IC50 overview
# System: MOLM-13
# Procedure text: Growth inhibition of human MOLM13 cells after 96 hrs by CCK8 assay
# Assay type: functional, cell-based
# Measurement conditions: MOLM-13, 96 h
Property measured: IC50 (nM)

Compound	Uom	Operator	Measured
Cc1nnc2n1Cc1sc(C#Cc3cnn(CCCC#Cc4cccc5c4CN(C4CCC(=O)NC4=O)C5=O)c3)c(Cc3ccccc3)c1OC2 (stereo not given)	nM	=	0.062
Cc1nnc2n1Cc1sc(C#Cc3cnn(CCCC#Cc4cccc5c4CN(C4CCC(=O)N(C)C4=O)C5=O)c3)c(Cc3ccccc3)c1OC2 (stereo not given)	nM	=	183
Cc1nnc2n1Cc1sc(C#Cc3cnn(CCCCCNc4cccc5c4C(=O)N(C4CCC(=O)NC4=O)C5=O)c3)c(Cc3ccccc3)c1OC2 (stereo not given)	nM	=	0.19
Cc1nnc2n1Cc1sc(C#Cc3cnn(CCCNc4cccc5c4CN(C4CCC(=O)NC4=O)C5=O)c3)c(Cc3ccccc3)c1OC2 (stereo not given)	nM	=	0.51
Cc1nnc2n1Cc1sc(C#Cc3cnn(-c4cccc5c4C(=O)N(C4CCC(=O)NC4=O)C5=O)c3)c(Cc3ccccc3)c1OC2 (stereo not given)	nM	>	1000

----------
# Tested on: RS4-11
# Procedure text: Growth inhibition of human RS4:11 cells after 96 hrs by CCK8 assay
# Type: functional, cell-based
# Measurement conditions: RS4-11, 96 h
pIC50: −log10 of the molar value.
pIC50 overview

Compound	Operator	pIC50
Cc1nnc2n1Cc1sc(C#Cc3cnn(-c4cccc5c4C(=O)N(C4CCC(=O)NC4=O)C5=O)c3)c(Cc3ccccc3)c1OC2 (configuration not stated)	<	6.00
Cc1nnc2n1Cc1sc(C#Cc3cnn(CCCCNc4cccc5c4C(=O)N(C4CCC(=O)NC4=O)C5=O)c3)c(Cc3ccccc3)c1OC2 (configuration not stated)	=	10.70
Cc1nnc2n1Cc1sc(C#Cc3cnn(CCCNc4cccc5c4C(=O)N(C4CCC(=O)NC4=O)C5=O)c3)c(Cc3ccccc3)c1OC2 (configuration not stated)	=	10.42
Cc1nnc2n1Cc1sc(C#Cc3cnn(CCCC#Cc4cccc5c4C(=O)N(C4CCC(=O)NC4=O)C5=O)c3)c(Cc3ccccc3)c1OC2 (configuration not stated)	=	9.41
Cc1nnc2n1Cc1sc(C#Cc3cnn(COc4cccc5c4C(=O)N(C4CCC(=O)NC4=O)C5=O)c3)c(Cc3ccccc3)c1OC2 (configuration not stated)	=	7.68
Cc1nnc2n1Cc1sc(C#Cc3cnn(CCCCNc4cccc5c4CN(C4CCC(=O)NC4=O)C5=O)c3)c(Cc3ccccc3)c1OC2 (configuration not stated)	=	11.92
Cc1nnc2n1Cc1sc(C#Cc3cnn(CCCNc4cccc5c4CN(C4CCC(=O)NC4=O)C5=O)c3)c(Cc3ccccc3)c1OC2 (configuration not stated)	=	10.60
Cc1nnc2n1Cc1sc(C#Cc3cnn(CCCCCc4cccc5c4CN(C4CCC(=O)NC4=O)C5=O)c3)c(Cc3ccccc3)c1OC2 (configuration not stated)	=	10.09
Cc1nnc2n1Cc1sc(C#Cc3cnn(CCCC#Cc4cccc5c4CN(C4CCC(=O)N(C)C4=O)C5=O)c3)c(Cc3ccccc3)c1OC2 (configuration not stated)	=	7.36
Cc1nnc2n1Cc1sc(C#Cc3cnn(CCNc4cccc5c4C(=O)N(C4CCC(=O)NC4=O)C5=O)c3)c(Cc3ccccc3)c1OC2 (configuration not stated)	=	9.42
Cc1nnc2n1Cc1sc(C#Cc3cnn(CCCC#Cc4cccc5c4CN(C4CCC(=O)NC4=O)C5=O)c3)c(Cc3ccccc3)c1OC2 (configuration not stated)	=	10.49
Cc1nnc2n1Cc1sc(C#Cc3cnn(CCCCCNc4cccc5c4C(=O)N(C4CCC(=O)NC4=O)C5=O)c3)c(Cc3ccccc3)c1OC2 (configuration not stated)	=	10.70
